# TESTED ON: T1, recombinant human MASP1 active protease (amino acids 297-699, C-terminal His Tag) (human, UniProt P48740 297-699)
# T1 sequence: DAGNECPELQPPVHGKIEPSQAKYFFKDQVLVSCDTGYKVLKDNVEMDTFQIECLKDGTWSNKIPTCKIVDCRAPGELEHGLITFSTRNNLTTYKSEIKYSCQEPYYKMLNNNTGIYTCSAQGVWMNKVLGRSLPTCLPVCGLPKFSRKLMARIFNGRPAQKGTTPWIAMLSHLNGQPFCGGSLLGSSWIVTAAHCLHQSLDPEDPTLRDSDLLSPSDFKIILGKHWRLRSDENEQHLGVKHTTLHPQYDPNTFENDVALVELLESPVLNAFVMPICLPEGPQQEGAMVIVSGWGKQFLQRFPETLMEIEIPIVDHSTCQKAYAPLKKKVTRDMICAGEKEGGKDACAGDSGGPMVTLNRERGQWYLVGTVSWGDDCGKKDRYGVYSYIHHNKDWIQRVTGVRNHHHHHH
# METHOD DESCRIPTION: cell-based or functional assay
Numbered stars: 1 amine (or outer) side, 2 acyl side, 3 side chain; on linkers, the order of the positions; unused ones are H or OH. Bridge positions count the residues as written; N and C are the ends. Square brackets hold non-standard residues; d marks the D form. Ends that are not written are not given here. X8 = (R)‑4‑Amino‑6‑methylheptanoic acid, CC(C)C[C@@H](CCC(=O)[*:2])N[*:1]; Oic = O=C(O)[C@@H]1C[C@@H]2CCCC[C@@H]2N1; Pen = CC(C)(S)[C@H](N)C(=O)O; Sar = CNCC(=O)O
MEASUREMENT TYPE: human MASP1 IC50 (nM)
I only need the number, in nM, no unit after it.

Incoming: Name the reported human MASP1 IC50 value associated with the binder [Sar]ICSRSLP[Oic]I[Pen]IP[X8]-OH (disulfide 3-11; N-terminus assumed; SMILES CC[C@H](C)[C@H](NC(=O)CNC)C(=O)N[C@H]1CSSC(C)(C)[C@@H](C(=O)N[C@H](C(=O)N2CCC[C@H]2C(=O)N[C@H](CCC(=O)O)CC(C)C)[C@@H](C)CC)NC(=O)[C@H]([C@@H](C)CC)NC(=O)[C@@H]2C[C@@H]3CCCC[C@@H]3N2C(=O)[C@@H]2CCCN2C(=O)[C@H](CC(C)C)NC(=O)[C@H](CO)NC(=O)[C@H](CCCNC(=N)N)NC(=O)[C@H](CO)NC1=O) [Example 450: ((N-Me)G)-IC+SRSLP-(Oic)-I-(Pen)+IP-((R)-4-Amino-6-methylheptanoic acid)-OH]
Outgoing: 5.8
